- Tested on: NIH3T3
- Method Description: MTT assay, NIH3T3 non-cancer cell line
- Type: cell-based
- Assay Conditions: Mus musculus, NIH3T3, 72 h, read-out: IC50 NIH3T3
Recorded Endpoint: IC50 (µM)
Write the value in µM as a bare number.

The following molecules have reported results that may help.
Mol | Measured
O=C1C=C(Nc2ccc(OCc3cn(Cc4cccc(Cl)c4)nn3)cc2)C(=O)c2ccccc21 | 29.8
O=C1C=C(Nc2ccc(OCc3cn(Cc4ccc(F)cc4)nn3)cc2)C(=O)c2ccccc21 | 20.1

# context switch: different molecule, same IC50
IC50 for `O=C1C=C(Nc2ccc(OCc3cn(Cc4ccc(Cl)c(Cl)c4)nn3)cc2)C(=O)c2ccccc21` ? 6.5
